assay: Single dose oral pharmacokinetic study in mice; assay type: in vivo; conditions: mouse, plasma; Oral PK @ 30 mg/ kg dose in mice (Table 6)
Please go through the items and note down their Cmax.
Respond with the bare value in ng/mL.

Could you tell me which Cmax is on file for CC(C)(CC(=O)O[C@H]1CC[C@]2(C)[C@H]3CC[C@@H]4[C@H]5[C@H](C6(C)CC6)CC[C@]5(C(=O)N5CCN(CCN6CCOCC6)CC5)CC[C@@]4(C)[C@]3(C)CC[C@H]2C1(C)C)C(=O)O ? 9200

And then CC1([C@@H]2CC[C@]3(C(=O)N4CCN(CCN5CCOCC5)CC4)CC[C@]4(C)[C@H](CC[C@@H]5[C@@]6(C)CC[C@H](OC(=O)[C@H]7C[C@@H](C(=O)O)C7(C)C)C(C)(C)[C@@H]6CC[C@]54C)[C@@H]23)CC1 , what is it? 9200

And then [2H]C([2H])([2H])C(CC(=O)O[C@H]1CC[C@]2(C)[C@H]3CC[C@@H]4[C@H]5[C@H](C6(C)CC6)CC[C@]5(C(=O)N[C@@H]5C[C@H](C(=O)N6CCCCC6)C5(C)C)CC[C@@]4(C)[C@]3(C)CC[C@H]2C1(C)C)(C(=O)O)C([2H])([2H])[2H] , what is it? 10200

And then COCCOCCN1CCN(C(=O)[C@]23CC[C@@H](C4(C)CC4)[C@@H]2[C@H]2CC[C@@H]4[C@@]5(C)CC[C@H](OC(=O)[C@H]6C[C@@H](C(=O)O)C6(C)C)C(C)(C)[C@@H]5CC[C@@]4(C)[C@]2(C)CC3)CC1 , what is it? 7000

====

experiment: Cyto-toxicity assay (MTT) in MT2 cells without virus; format: cell-based; details: human
Please go through the items and note down their viability at 1000 nM.
Respond with the bare value in %.

Could you tell me which viability at 1000 nM is on file for CC(C)(C)OC(=O)N1CCN(C(=O)[C@]23CC[C@@H](C4(C)CC4)[C@@H]2[C@H]2CC[C@@H]4[C@@]5(C)CC[C@H](OC(=O)CC(C)(C)C(=O)O)C(C)(C)[C@@H]5CC[C@@]4(C)[C@]2(C)CC3)CC1 ? 72

And then [2H]C([2H])([2H])C(CC(=O)O[C@H]1CC[C@]2(C)[C@H]3CC[C@@H]4[C@H]5[C@H](C(=C)C)CC[C@]5(C(=O)N5CCN(CC)CC5)CC[C@@]4(C)[C@]3(C)CC[C@H]2C1(C)C)(C(=O)O)C([2H])([2H])[2H] , what is it? 84

And then CC(C)(CC(=O)O)CC(=O)O[C@H]1CC[C@]2(C)[C@H]3CC[C@@H]4C5[C@H](C6(C)CC6)CC[C@]5(C(=O)N[C@H]5C[C@@H](C(=O)N6CCOCC6)C5(C)C)CC[C@@]4(C)[C@]3(C)CC[C@H]2C1(C)C (stereo partly shown) , what is it? 85

And then C=C(C)[C@@H]1CC[C@]2(C(=O)N[C@@H]3C[C@H](c4nnc(C)o4)C3(C)C)CC[C@]3(C)[C@H](CC[C@@H]4[C@@]5(C)CC[C@H](OC(=O)[C@H]6C[C@@H](C(=O)O)C6(C)C)C(C)(C)[C@@H]5CC[C@]43C)[C@@H]12 , what is it? 96

Values compiled from patent US20150119373A1.
